Target: T1, human complement factor D purified from serum (human, UniProt P00746 26-253)
T1 construct: serum-purified (CompTech); also called hCFD-Comptech; CFD
T1 sequence (P00746 26-253): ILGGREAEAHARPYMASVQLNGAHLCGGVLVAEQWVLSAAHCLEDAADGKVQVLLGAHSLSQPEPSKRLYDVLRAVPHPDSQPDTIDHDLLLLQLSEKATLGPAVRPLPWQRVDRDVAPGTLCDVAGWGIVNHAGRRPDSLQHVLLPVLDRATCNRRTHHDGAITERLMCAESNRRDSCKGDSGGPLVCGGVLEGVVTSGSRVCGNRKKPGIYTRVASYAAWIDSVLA
Assay: SPR MX96
measured-attribute: pKd
Lab note — pKd values are minus log10 of concentrations in M.

Solved entries (count: 2):
{"binder": "KCD121 (antibody, V domains shown, chimeric) VH: EVQLQQSGPELVKPGASVKISCKASGYTFTDYYKNWMRQRHGESLEWIGDINPNNGDTSYNQKFRGKATLTVDKSSSTAFMELRSLTSEDSAVYYCAREGPSFAYWGQGTLVTVSA VL: DVLMTQTPLSLPVSLGDQASISCRSNQTIVHSNGDTYLEWYLQKPGQSPNLLIYKVSNRFSGVPDRFSGSGSGTDFTLRISRVEAEDLGVYYCFQGSHVPPTFGGGTKLEIK", "measured-attribute": "pKd", "experimental-value": 8.74}
{"binder": "KCD018 (antibody, V domains shown) VH: QVQLQQSAAELARPGASVKMSCKASGYTFTSYTVHWVKQRPGQGLEWIGYINPSSGFTDYNQKFKDKTTLTADISSSTAYIQLSSLTSEDSAVYYCARRGVNWSWFAYWGQGTLVTVSA VL: NIMMTQSPSSLAVSAGEKVTMSCKSSQSVLYSSNQKNYLAWYQQKPGQSPQLLIYWASTRESGVPERFTGSGSGTDFTLTISSVQAEDLAVYYCHQYLSSWTFGGGTKLEIK", "measured-attribute": "pKd", "experimental-value": 7.39}

The record that follows has no pKd shown yet.
[Q] For KCD022 (antibody, V domains shown) VH: DVQLQESGPDLVKPSQSLSLTCTVTGYSITSGYSWHWIRQFPGNTLEWMGYIHYSGSTNYNPSLESRISFTRDTSKNQFFLQLNSVTTEDTATYYCALHFYGYNLGWYFDVWGAGTTVTVSS VL: DIVMTQSHKFMSTSIGDRVIITCKASQDVGTTVAWYQQRPGQSPKLLIYWASTRHTAVPDRFTGSGSGTDFTLTISNVQSEDLADYFCQQYTSYPLTFGAGTQLELK , what is its reported pKd?
[A] 7.24
